Provenance of the data: patent US20090269356

- tested-target: complement C5 (full length) (Homo sapiens, UniProt P01031)
- Sequence (P01031 whole entry): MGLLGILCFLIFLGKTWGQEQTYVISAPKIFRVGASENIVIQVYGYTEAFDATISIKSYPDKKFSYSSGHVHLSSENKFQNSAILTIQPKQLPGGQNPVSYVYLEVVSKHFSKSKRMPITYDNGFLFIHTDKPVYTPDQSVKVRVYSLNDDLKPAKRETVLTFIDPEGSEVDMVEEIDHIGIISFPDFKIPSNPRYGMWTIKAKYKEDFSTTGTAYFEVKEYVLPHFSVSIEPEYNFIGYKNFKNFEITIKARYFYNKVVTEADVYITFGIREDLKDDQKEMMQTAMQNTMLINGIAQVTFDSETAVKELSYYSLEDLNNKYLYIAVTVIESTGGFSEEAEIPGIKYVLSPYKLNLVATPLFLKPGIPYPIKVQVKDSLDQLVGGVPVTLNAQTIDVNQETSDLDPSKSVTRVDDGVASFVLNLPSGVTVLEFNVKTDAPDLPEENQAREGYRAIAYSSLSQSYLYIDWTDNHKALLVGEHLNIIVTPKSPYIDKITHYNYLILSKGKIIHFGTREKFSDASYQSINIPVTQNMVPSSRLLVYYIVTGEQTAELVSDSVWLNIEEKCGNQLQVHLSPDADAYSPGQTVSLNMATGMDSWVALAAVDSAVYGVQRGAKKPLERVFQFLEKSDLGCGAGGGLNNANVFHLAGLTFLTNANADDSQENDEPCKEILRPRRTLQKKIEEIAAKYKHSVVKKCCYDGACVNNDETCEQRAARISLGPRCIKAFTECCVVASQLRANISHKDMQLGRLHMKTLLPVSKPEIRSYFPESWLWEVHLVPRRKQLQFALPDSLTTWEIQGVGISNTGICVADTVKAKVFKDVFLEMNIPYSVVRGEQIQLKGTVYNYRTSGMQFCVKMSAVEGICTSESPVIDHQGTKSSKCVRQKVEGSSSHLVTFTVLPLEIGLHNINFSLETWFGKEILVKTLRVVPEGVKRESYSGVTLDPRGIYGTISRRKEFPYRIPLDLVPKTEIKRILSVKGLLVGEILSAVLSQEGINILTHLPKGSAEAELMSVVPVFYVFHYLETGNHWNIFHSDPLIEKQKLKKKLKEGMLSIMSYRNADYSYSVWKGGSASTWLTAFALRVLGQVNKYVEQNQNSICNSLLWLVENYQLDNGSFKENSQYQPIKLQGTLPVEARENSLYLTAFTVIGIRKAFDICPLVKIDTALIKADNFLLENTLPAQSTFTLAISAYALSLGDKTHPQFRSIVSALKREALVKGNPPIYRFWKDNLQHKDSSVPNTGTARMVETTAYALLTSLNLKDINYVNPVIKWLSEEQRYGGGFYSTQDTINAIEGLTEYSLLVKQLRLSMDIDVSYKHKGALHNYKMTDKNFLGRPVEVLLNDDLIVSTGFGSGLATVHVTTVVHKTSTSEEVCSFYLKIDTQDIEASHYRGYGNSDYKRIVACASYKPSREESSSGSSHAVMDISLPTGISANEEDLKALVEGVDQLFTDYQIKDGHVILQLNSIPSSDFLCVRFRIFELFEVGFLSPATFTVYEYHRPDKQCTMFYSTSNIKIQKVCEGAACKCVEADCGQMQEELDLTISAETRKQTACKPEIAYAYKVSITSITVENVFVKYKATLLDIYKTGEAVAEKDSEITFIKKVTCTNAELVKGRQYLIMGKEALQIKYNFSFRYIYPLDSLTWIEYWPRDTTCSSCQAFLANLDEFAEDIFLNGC
- test: filter; dot blot; 20% plateau
- settings: tags: Quidel / Complement Technologies A120.14 / Advanced Research Technologies
pKd: −log10 of the molar value.
measured-endpoint: pKd

Challenge: Using the record for ARC913 (mixed, dRmY: A,G deoxy; C,U 2'-OMe) RNA: GGGAGAGGAGAGAACGUUCUACCUUGGUUUGGCACAGGCAUACAUACGCAGGGGUCGAUCGAUCGAUCAUCGAUG , report its pKd.
Response given: ~6.85
